System: 616215-338-R-J1-PDC complex spheroid viability;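 also: spheroids exposed to agents for seven days before viability readout; 100% = DMSO vehicle control viability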
Protocol Summary: Anticancer human tumor 616215-338-R-J1-PDC patient-derived colon adenocarcinoma cell line growth inhibition [RAS]
Study Conditions: second compound 0.316 µM; first compound 0.00316 µM; hits give low values
Quick reference: viability, T/C of the listed items.
Value expressed in %; do not type the unit.

[
  {
    "Compound": "C=CC(=O)N1CCN(c2nc(OCC3CCCN3C)nc3c(F)c(-c4nc(N)cc(C)c4C(F)(F)F)c(Cl)cc23)C(C)C1 (stereo unspecified) + C#Cc1c(F)ccc2cc(O)cc(-c3ncc4c(N5CC6CCC(C5)N6)nc(OCC56CCCN5CC(F)C6)nc4c3F)c12",
    "Assay System": "616215-338-R-J1-PDC complex spheroid viability",
    "viability, T/C / %": 112
  },
  {
    "Compound": "Nc1ccn(C2OC(CO)C(O)C2(F)F)c(=O)n1 (stereo unspecified) + C#Cc1c(F)ccc2cc(O)cc(-c3ncc4c(N5CC6CCC(C5)N6)nc(OCC56CCCN5CC(F)C6)nc4c3F)c12",
    "Assay System": "616215-338-R-J1-PDC complex spheroid viability",
    "viability, T/C / %": 90
  },
  {
    "Compound": "CCN1CCN(Cc2ccc(Nc3ncc(F)c(-c4cc(F)c5nc(C)n(C(C)C)c5c4)n3)nc2)CC1 + C=CC(=O)N1CCN(c2nc(OCC3CCCN3C)nc3c(F)c(-c4nc(N)cc(C)c4C(F)(F)F)c(Cl)cc23)C(C)C1",
    "Assay System": "616215-338-R-J1-PDC complex spheroid viability",
    "viability, T/C / %": 114
  },
  {
    "Compound": "CC(C)n1nc(-c2ccc3oc(N)nc3c2)c2c(N)ncnc21 + C#Cc1c(F)ccc2cc(O)cc(-c3ncc4c(N5CC6CCC(C5)N6)nc(OCC56CCCN5CC(F)C6)nc4c3F)c12",
    "Assay System": "616215-338-R-J1-PDC complex spheroid viability",
    "viability, T/C / %": 112
  },
  {
    "Compound": "O=C(c1ccc(F)c(F)c1Nc1ccc(I)cc1F)N1CC(O)([C@@H]2CCCCN2)C1 + C=CC(=O)N1CCN(c2nc(OCC3CCCN3C)nc3c(F)c(-c4nc(N)cc(C)c4C(F)(F)F)c(Cl)cc23)C(C)C1",
    "Assay System": "616215-338-R-J1-PDC complex spheroid viability",
    "viability, T/C / %": 100
  }
]

# return recorded viability, T/C for input O=C(c1ccc(F)c(F)c1Nc1ccc(I)cc1F)N1CC(O)([C@@H]2CCCCN2)C1 + C#Cc1c(F)ccc2cc(O)cc(-c3ncc4c(N5CC6CCC(C5)N6)nc(OCC56CCCN5CC(F)C6)nc4c3F)c12 124

# return recorded viability, T/C for input Nc1ccn(C2OC(CO)C(O)C2(F)F)c(=O)n1 (stereo unspecified) + C=CC(=O)N1CCN(c2nc(OCC3CCCN3C)nc3c(F)c(-c4nc(N)cc(C)c4C(F)(F)F)c(Cl)cc23)C(C)C1 111

# return recorded viability, T/C for input CCN1CCN(Cc2ccc(Nc3ncc(F)c(-c4cc(F)c5nc(C)n(C(C)C)c5c4)n3)nc2)CC1 + C#Cc1c(F)ccc2cc(O)cc(-c3ncc4c(N5CC6CCC(C5)N6)nc(OCC56CCCN5CC(F)C6)nc4c3F)c12 105

# return recorded viability, T/C for input CC(C)n1nc(-c2ccc3oc(N)nc3c2)c2c(N)ncnc21 + C=CC(=O)N1CCN(c2nc(OCC3CCCN3C)nc3c(F)c(-c4nc(N)cc(C)c4C(F)(F)F)c(Cl)cc23)C(C)C1 111

# return recorded viability, T/C for input C=CC(=O)Nc1cc(Nc2nccc(-c3cn(C)c4ccccc34)n2)c(OC)cc1N(C)CCN(C)C + C#Cc1c(F)ccc2cc(O)cc(-c3ncc4c(N5CC6CCC(C5)N6)nc(OCC56CCCN5CC(F)C6)nc4c3F)c12 114

# return recorded viability, T/C for input C=CC(=O)Nc1cc(Nc2nccc(-c3cn(C)c4ccccc34)n2)c(OC)cc1N(C)CCN(C)C + C=CC(=O)N1CCN(c2nc(OCC3CCCN3C)nc3c(F)c(-c4nc(N)cc(C)c4C(F)(F)F)c(Cl)cc23)C(C)C1 105
